# maps each entry to its IC50 (FRNT, live virus neutralisation)
molecular target: spike protein of SARS-CoV-2 strain Victoria (SARS-CoV-2/human/AUS/VIC01/2020) (SARS-CoV-2, UniProt P0DTC2 14-1273); experiment: cell-based or functional assay
test.readout: IC50 (FRNT, live virus neutralisation) (µg/mL)

# binder, test.readout, result.unit, numeric.readout
records = [
    ("antibody 158 (antibody, V domains shown) VH: EVQLLESGGDLIQPGGSLRLSCAASGVTVSSNYMSWVRQAPGKGLEWVSIIYPGGSTFYADSVKGRFTISRDNSKNTLYLQMHSLRAEDTAVYYCARDLGSGDMDVWGKGTTVTVSS VL: DIVMTQSPSFLSASVGDRVTITCRASQGISSYLAWYQQKPGKAPKLLIQAASTLQSGVPSRFSGSGSGTEFTLTISSLQPEDFATYYCQQLNSYRYTFGQGTKVEIK", "IC50 (FRNT, live virus neutralisation)", "µg/mL", 0.031),
    ("antibody 88 (antibody, V domains shown) VH: QLQLQESGPGLVKPSQTLSLTCTVSGGSISSGSYNWTWIRQPAGKGLEWIGRIYNSGSTNYNPSLKSRVTISVDTSKNQLSLKVRSVTAADTAVYYCARHCSGGTCYPKYYYGMDVWGQGTTVTVSS VL: QSALTQPPSVSEAPRQRVTISCSGSSSNIGNNAVNWYQQFPGKAPKLLIYYDDLLPSGVSDRFSGSKSGTSASLAISGVQSEDEADYYCAAWDDSLNVVVFGGGTKLTVL", "IC50 (FRNT, live virus neutralisation)", "µg/mL", 0.033),
    ("antibody 170 (antibody, V domains shown) VH: QVQLVESGAEVKKPGESLKISCKGSGYSFTSYWIVWVRQMPGKGLEWMGIIYPGDSDTKYSPSFQGQVSISADKPISTAYLQWSRLKASDTAMYYCARLGNWLVDYWGQGTLVTVSS VL: DIVMTQSPLSLSVTPGQPASISCKSSQSLLHSDGKTYLYWYLQKPGQPPQLLMYEVSNRFSGVPDRFSGSGSGTDFTLKISRVESEDVGVYYCMQSIQLPRGITFGQGTRLEIK", "IC50 (FRNT, live virus neutralisation)", "µg/mL", 0.025),
]
